assay: refractive index (Na D-line) (dimensionless); conditions: 298.15 K; 101.33 kPa; Liquid; Standard Abbe refractometry
Recorded Endpoint: refractive index
Answer with a bare number; do not write a unit.

Request: What value of refractive index has been recorded for this entry: `Cc1ccc(C)cc1`
Response: 1.4931

Request: Same lookup for `Cc1cccc(C)c1` , please.
Response: 1.4946

Request: Consider next the compound `CCCCCCCCCCC` in the same way.
Response: 1.4152

Request: Queued: `Cc1ccccc1C`
Response: 1.5031

====

Field: mass density. Provide a value for each of the compounds that follow.
conditions: 298.15 K; 101.33 kPa; Liquid; Vibrating tube method
The reply should contain only the number, in kg/m3.

Request: Tell me the measured mass density of `Cc1ccc(C)cc1` , please.
Response: 856.71

Request: And for `CCCCCCCCCCC` ?
Response: 736.85

Request: // same read-out, input: `Cc1cccc(C)c1`
Response: 859.95

Request: Try the compound `Cc1ccccc1C`
Response: 875.5
